measured metric: melting point (°C)
Form entry: value (°C) — number only.

Any idea what its melting point is? The compound is Cl.O=C(NC1=Nc2ccc(Br)cc2C2=NCCN12)c1cccnc1 [Example 2-88]
316

Any idea what its melting point is? The compound is COc1cc2c(c(OC)c1C)N=C(/C=C(\O)c1ccc3[nH]cnc3c1)N1CCN=C21 [Example 1-66]
280

Any idea what its melting point is? The compound is CN(C)c1ccc2c(c1)C1=NCCN1C(NC(=O)c1cccnc1)=N2 [Example 2-345]
269

Any idea what its melting point is? The compound is Cl.O=C(NC1=Nc2cc(Br)ccc2C2=NCCN12)c1cccnc1 [Example 2-42]
243

###

measured metric: melting point

Any idea what its melting point is? The molecule is Cl.O/C(=C\C1=Nc2ccccc2C2=NCCN12)c1ccncc1 [Example 1-176]
235 °C (dec.)

Any idea what its melting point is? The molecule is Cc1cccc2c1N=C(/C=C(\O)c1ccc3[nH]cnc3c1)N1CCN=C21.Cl [Example 1-79]
> 285 °C

Any idea what its melting point is? The molecule is COc1ccc2c(c1)C1=NCCN1C(NC(=O)c1ccc3[nH]cnc3c1)=N2.Cl [Example 2-94]
288 °C

Any idea what its melting point is? The molecule is Cc1nc2ccccn2c1C(=O)NC1=Nc2ccccc2C2=NCCN12 [Example 2-170]
277 to 279 °C

Any idea what its melting point is? The molecule is CSc1ncccc1C(=O)NC1=Nc2ccccc2C2=NCCN12.Cl [Example 2-289]
298 to 299 °C

Any idea what its melting point is? The molecule is COc1cccc2c1N=C(/C=C(\O)c1cccnc1)N1CCN=C21.Cl [Example 1-69]
285 °C

Any idea what its melting point is? The molecule is O=C(O)c1cncc(C(=O)NC2=Nc3ccccc3C3=NCCN23)c1 [Example 2-142]
358 to 359 °C

Any idea what its melting point is? The molecule is Cl.O=C(NC1=Nc2ccccc2C2=NCCN12)c1cc2cccnc2nc1C(F)(F)F [Example 2-176]
248 to 249 °C

Any idea what its melting point is? The molecule is Cl.O=C(NC1=Nc2c(F)cccc2C2=NCCN12)c1ccc2[nH]cnc2c1 [Example 2-102]
> 300 °C

###

Counter-ions that a name gives are not always drawn.
Please provide measured melting point for the entries that follow.

Any idea what its melting point is? The compound is O=C(NC1=Nc2ccccc2C2=NCCN12)c1cnccn1.O=C(O)C(F)(F)F
234 °C (dec.)

Any idea what its melting point is? The compound is Cl.O=C(NC1=Nc2cc(O)ccc2C2=NCCN12)c1cccnc1
270 to 274 °C (dec.)

Any idea what its melting point is? The compound is COc1cc2c(cc1OC)C1=NCCN1C(/C=C(\O)c1cccnc1)=N2 [Example 1-1]
275 °C

Any idea what its melting point is? The compound is Cl.O=C(NC1=Nc2cc(OCCOCCO)ccc2C2=NCCN12)c1cccnc1
229 °C (dec.)

Any idea what its melting point is? The compound is COc1cc(C(=O)NC2=Nc3ccccc3C3=NCCN23)cc(OC)c1C.Cl
321 °C (dec.)

Any idea what its melting point is? The compound is O=C(NC1=Nc2cc(N3CCOCC3)ccc2C2=NCCN12)c1ccc2[nH]cnc2c1
250 °C (dec.)

Any idea what its melting point is? The compound is N#Cc1ccc(/C(O)=C/C2=Nc3ccccc3C3=NCCN23)cc1
260 to 264 °C

Any idea what its melting point is? The compound is COc1cccc2c1N=C(NC(=O)c1cccnc1C)N1CCN=C21
204 to 205 °C

Any idea what its melting point is? The compound is O/C(=C\c1nc2ccccc2c2nccn12)c1cccs1 (as salt: hydrochloride) [Example 3-1]
263 °C (dec.)

Any idea what its melting point is? The compound is Cl.O=C(NC1=Nc2ccccc2C2=NCCN12)c1ccc(-n2cccc2)cc1
309 °C (dec.)

Any idea what its melting point is? The compound is Cl.O=C(NC1=Nc2ccccc2C2=NCCN12)c1nccs1
306 °C (dec.)

Any idea what its melting point is? The compound is Cl.O=C(NC1=Nc2cc(OCC(=O)N3CCOCC3)ccc2C2=NCCN12)c1cccnc1
227 °C

Any idea what its melting point is? The compound is COc1cc(OC)c2c(c1)C1=NCCN1C(NC(=O)c1ccc(NC(C)=O)nc1)=N2
286 °C (dec.)

Any idea what its melting point is? The compound is O/C(=C\C1=Nc2ccccc2C2=NCCN12)c1ccccn1
195 °C

Any idea what its melting point is? The compound is Cc1ccc(/C(O)=C/C2=Nc3ccccc3C3=NCCN23)cn1
217 to 219 °C

Any idea what its melting point is? The compound is CCC(=O)NC1=Nc2cc(OC)c(OC)cc2C2=NCCN12
224 to 225 °C

Any idea what its melting point is? The compound is Cc1ccncc1C(=O)NC1=Nc2ccccc2C2=NCCN12.Cl
291 °C (dec.)

Any idea what its melting point is? The compound is Cc1ncccc1C(=O)NC1=Nc2cc(N3CCOCC3)ccc2C2=NCCN12
199 °C (dec.)
